assay: Cycloheximide Counterscreen for Small Molecule Inhibitors of Shiga Toxin; details: cell reporter, cycloheximide protein synthesis inhibition counterscreen; active compounds read high; also: read at 38.3 µM for the half of the compounds with a filed dose; 0% is about no effect
Among all 300,000 compounds or so, about 37,000 (12%) were called active. What follows is part of a selection rich in actives, with near analogues and random picks from the rest.
endpoint.label: max response (%)
# unit: % | format: bare number

INSERT INTO measurements (structure_notation, endpoint_label, observed) VALUES
  ('Cc1ccc2sc(N(CCN(C)C)C(=O)/C=C/c3cccs3)nc2c1C', 'max response', -8.25),
  ('CN(CCOc1ccccc1)Cc1nc2cc(Cl)ccc2c(=O)[nH]1', 'max response', 2.21),
  ('CCc1cccc(C)c1NS(=O)(=O)c1c(C)nc2sccn2c1=O', 'max response', -1.71),
  ('O=c1[nH]c(CN2CCOCC2)nc2cc(Cl)ccc12', 'max response', 13),
  ('CCN(CC)C(=O)CSc1ncnc2c1cnn2-c1ccccc1', 'max response', 38.4);

stdin: Which max response is listed for c1ccc(-n2ncc3c2ncn2c(C4CCCCC4)nnc32)cc1 ?
stdout: -1.23
